Where these numbers come from: paper PMC8268887

% MeCN at Elution, Luna by entry:
- PROTOCOL_TEXT: Hydrophobicity by retention in analytical RP-HPLC (% MeCN at peak elution)
- Format: physicochemical
- PROTOCOL_CONDITIONS: Phenomenex Luna C18(2) column; RP-HPLC gradient 0→60% B during 15 min; relative hydrophobicity
PROPERTY_MEASURED: % MeCN at Elution, Luna

1) NCCCC[C@H](NC(=O)CCN(Cc1ccc(F)cc1)C(=O)[C@H](CCCCN)NC(=O)CCN(Cc1ccc(F)cc1)C(=O)[C@H](CCCCN)NC(=O)CCN(Cc1ccc(F)cc1)C(=O)[C@H](CCCCN)NC(=O)CCN(Cc1ccc(F)cc1)C(=O)[C@H](CCCCN)NC(=O)CCN(Cc1ccc(F)cc1)C(=O)[C@H](CCCCN)NC(=O)CCOCCOCCOCCOCCN)C(=O)N(CCC(N)=O)Cc1ccc(F)cc1 [Compound 3, H-sPEG4-[X]6-NH2]
41.9 % MeCN
2) NCCCC[C@H](NC(=O)CCN(Cc1ccc(F)cc1)C(=O)[C@H](CCCCN)NC(=O)CCN(Cc1ccc(F)cc1)C(=O)[C@H](CCCCN)NC(=O)COCCOCCNC(=O)CCN(Cc1ccc(F)cc1)C(=O)[C@H](CCCCN)NC(=O)CCN(Cc1ccc(F)cc1)C(=O)[C@H](CCCCN)NC(=O)CCN(Cc1ccc(F)cc1)C(=O)[C@@H](N)CCCCN)C(=O)N(CCC(N)=O)Cc1ccc(F)cc1 [Compound 7, H-[X]3-sPEG2-[X]3-NH2]
41.4 % MeCN
3) NCCCC[C@H](NC(=O)CCN(Cc1ccc(F)cc1)C(=O)[C@H](CCCCN)NC(=O)COCCNC(=O)CCN(Cc1ccc(F)cc1)C(=O)[C@H](CCCCN)NC(=O)CCN(Cc1ccc(F)cc1)C(=O)[C@H](CCCCN)NC(=O)COCCNC(=O)CCN(Cc1ccc(F)cc1)C(=O)[C@H](CCCCN)NC(=O)CCN(Cc1ccc(F)cc1)C(=O)[C@@H](N)CCCCN)C(=O)N(CCC(N)=O)Cc1ccc(F)cc1 [Compound 15, H-[X]2-sPEG1-[X]2-sPEG1-[X]2-NH2]
41.1 % MeCN
4) NCCCC[C@H](NC(=O)CCN(Cc1ccc(F)cc1)C(=O)[C@H](CCCCN)NC(=O)COCCOCCOCCNC(=O)CCN(Cc1ccc(F)cc1)C(=O)[C@H](CCCCN)NC(=O)CCN(Cc1ccc(F)cc1)C(=O)[C@H](CCCCN)NC(=O)COCCOCCOCCNC(=O)CCN(Cc1ccc(F)cc1)C(=O)[C@H](CCCCN)NC(=O)CCN(Cc1ccc(F)cc1)C(=O)[C@@H](N)CCCCN)C(=O)N(CCC(N)=O)Cc1ccc(F)cc1 [Compound 17, H-[X]2-sPEG3-[X]2-sPEG3-[X]2-NH2]
41.8 % MeCN
5) NCCCC[C@H](NC(=O)CCN(Cc1ccc(F)cc1)C(=O)[C@H](CCCCN)NC(=O)CCN(Cc1ccc(F)cc1)C(=O)[C@H](CCCCN)NC(=O)CCN(Cc1ccc(F)cc1)C(=O)[C@H](CCCCN)NC(=O)CCN(Cc1ccc(F)cc1)C(=O)[C@H](CCCCN)NC(=O)CCN(Cc1ccc(F)cc1)C(=O)[C@H](CCCCN)NC(=O)CCOCCOCCOCCOCCN)C(=O)N(CCC(=O)NCCOCCOCCOCCOCCC(N)=O)Cc1ccc(F)cc1 [Compound 5, H-sPEG4-[X]6-sPEG4-NH2]
42.2 % MeCN
6) NCCCC[C@H](NC(=O)CCN(Cc1ccc(F)cc1)C(=O)[C@H](CCCCN)NC(=O)CCOCCOCCOCCOCCNC(=O)CCN(Cc1ccc(F)cc1)C(=O)[C@H](CCCCN)NC(=O)CCN(Cc1ccc(F)cc1)C(=O)[C@H](CCCCN)NC(=O)CCOCCOCCOCCOCCNC(=O)CCN(Cc1ccc(F)cc1)C(=O)[C@H](CCCCN)NC(=O)CCN(Cc1ccc(F)cc1)C(=O)[C@@H](N)CCCCN)C(=O)N(CCC(N)=O)Cc1ccc(F)cc1 [Compound 18, H-[X]2-sPEG4-[X]2-sPEG4-[X]2-NH2]
42.1 % MeCN
7) NCCCC[C@H](NC(=O)CCN(Cc1ccc(F)cc1)C(=O)[C@H](CCCCN)NC(=O)CCN(Cc1ccc(F)cc1)C(=O)[C@H](CCCCN)NC(=O)COCCOCCOCCNC(=O)CCN(Cc1ccc(F)cc1)C(=O)[C@H](CCCCN)NC(=O)CCN(Cc1ccc(F)cc1)C(=O)[C@H](CCCCN)NC(=O)CCN(Cc1ccc(F)cc1)C(=O)[C@@H](N)CCCCN)C(=O)N(CCC(N)=O)Cc1ccc(F)cc1 [Compound 8, H-[X]3-sPEG3-[X]3-NH2]
41.7 % MeCN
8) NCCCC[C@H](NC(=O)CCN(Cc1ccc(F)cc1)C(=O)[C@H](CCCCN)NC(=O)CCN(Cc1ccc(F)cc1)C(=O)[C@H](CCCCN)NC(=O)CCN(Cc1ccc(F)cc1)C(=O)[C@H](CCCCN)NC(=O)CCN(Cc1ccc(F)cc1)C(=O)[C@H](CCCCN)NC(=O)CCN(Cc1ccc(F)cc1)C(=O)[C@H](CCCCN)NC(=O)COCCOCCN)C(=O)N(CCC(N)=O)Cc1ccc(F)cc1 [Compound 2, H-sPEG2-[X]6-NH2]
41.4 % MeCN
9) NCCCC[C@H](NC(=O)CCN(Cc1ccc(F)cc1)C(=O)[C@H](CCCCN)NC(=O)CCN(Cc1ccc(F)cc1)C(=O)[C@H](CCCCN)NC(=O)CCOCCOCCOCCOCCNC(=O)CCN(Cc1ccc(F)cc1)C(=O)[C@H](CCCCN)NC(=O)CCN(Cc1ccc(F)cc1)C(=O)[C@H](CCCCN)NC(=O)CCN(Cc1ccc(F)cc1)C(=O)[C@@H](N)CCCCN)C(=O)N(CCC(N)=O)Cc1ccc(F)cc1 [Compound 9, H-[X]3-sPEG4-[X]3-NH2]
41.8 % MeCN
10) NCCCC[C@H](NC(=O)CCN(Cc1ccc(F)cc1)C(=O)[C@H](CCCCN)NC(=O)CCN(Cc1ccc(F)cc1)C(=O)[C@H](CCCCN)NC(=O)CCOCCOCCOCCOCCN)C(=O)N(CCC(=O)NCCOCCOCCOCCOCCC(=O)N[C@@H](CCCCN)C(=O)N(CCC(=O)N[C@@H](CCCCN)C(=O)N(CCC(=O)N[C@@H](CCCCN)C(=O)N(CCC(=O)NCCOCCOCCOCCOCCC(N)=O)Cc1ccc(F)cc1)Cc1ccc(F)cc1)Cc1ccc(F)cc1)Cc1ccc(F)cc1 [Compound 14, H-sPEG4-[X]3-sPEG4-[X]3-sPEG4-NH2]
42.4 % MeCN

###

- Tested on: E. coli NMI 3898/15
- Type: cell-based, Escherichia coli
- PROTOCOL_CONDITIONS: NMI 3898/15, 20 h
PROPERTY_MEASURED: MIC, E. coli NMI 3898/15 (µg/mL)

1) NCCCC[C@H](NC(=O)CCN(Cc1ccc(F)cc1)C(=O)[C@H](CCCCN)NC(=O)CCN(Cc1ccc(F)cc1)C(=O)[C@H](CCCCN)NC(=O)COCCOCCNC(=O)CCN(Cc1ccc(F)cc1)C(=O)[C@H](CCCCN)NC(=O)CCN(Cc1ccc(F)cc1)C(=O)[C@H](CCCCN)NC(=O)CCN(Cc1ccc(F)cc1)C(=O)[C@@H](N)CCCCN)C(=O)N(CCC(N)=O)Cc1ccc(F)cc1 [Compound 7, H-[X]3-sPEG2-[X]3-NH2]
8
2) NCCCC[C@H](NC(=O)CCN(Cc1ccc(F)cc1)C(=O)[C@H](CCCCN)NC(=O)CCN(Cc1ccc(F)cc1)C(=O)[C@H](CCCCN)NC(=O)CCN(Cc1ccc(F)cc1)C(=O)[C@H](CCCCN)NC(=O)CCN(Cc1ccc(F)cc1)C(=O)[C@H](CCCCN)NC(=O)CCN(Cc1ccc(F)cc1)C(=O)[C@H](CCCCN)NC(=O)CCOCCOCCOCCOCCN)C(=O)N(CCC(=O)NCCOCCOCCOCCOCCC(N)=O)Cc1ccc(F)cc1 [Compound 5, H-sPEG4-[X]6-sPEG4-NH2]
32
3) NCCCC[C@H](NC(=O)CCN(Cc1ccc(F)cc1)C(=O)[C@H](CCCCN)NC(=O)CCN(Cc1ccc(F)cc1)C(=O)[C@H](CCCCN)NC(=O)COCCN)C(=O)N(CCC(=O)NCCOCC(=O)N[C@@H](CCCCN)C(=O)N(CCC(=O)N[C@@H](CCCCN)C(=O)N(CCC(=O)N[C@@H](CCCCN)C(=O)N(CCC(=O)NCCOCC(N)=O)Cc1ccc(F)cc1)Cc1ccc(F)cc1)Cc1ccc(F)cc1)Cc1ccc(F)cc1 [Compound 11, H-sPEG1-[X]3-sPEG1-[X]3-sPEG1-NH2]
16

###

- PROTOCOL_TEXT: Hydrophobicity by retention in analytical RP-HPLC (% MeCN at peak elution)
- Format: physicochemical
- PROTOCOL_CONDITIONS: Phenomenex Luna Omega Polar C18 column; gradient 0→60% B during 15 min
PROPERTY_MEASURED: % MeCN at Elution, Luna Omega

1) NCCCC[C@H](NC(=O)CCN(Cc1ccc(F)cc1)C(=O)[C@H](CCCCN)NC(=O)CCN(Cc1ccc(F)cc1)C(=O)[C@H](CCCCN)NC(=O)CCOCCOCCOCCOCCNC(=O)CCN(Cc1ccc(F)cc1)C(=O)[C@H](CCCCN)NC(=O)CCN(Cc1ccc(F)cc1)C(=O)[C@H](CCCCN)NC(=O)CCN(Cc1ccc(F)cc1)C(=O)[C@@H](N)CCCCN)C(=O)N(CCC(N)=O)Cc1ccc(F)cc1 [Compound 9, H-[X]3-sPEG4-[X]3-NH2]
42.3 % MeCN
2) NCCCC[C@H](NC(=O)CCN(Cc1ccc(F)cc1)C(=O)[C@H](CCCCN)NC(=O)CCN(Cc1ccc(F)cc1)C(=O)[C@H](CCCCN)NC(=O)CCN(Cc1ccc(F)cc1)C(=O)[C@H](CCCCN)NC(=O)CCN(Cc1ccc(F)cc1)C(=O)[C@H](CCCCN)NC(=O)CCN(Cc1ccc(F)cc1)C(=O)[C@H](CCCCN)NC(=O)CCOCCOCCOCCOCCN)C(=O)N(CCC(N)=O)Cc1ccc(F)cc1 [Compound 3, H-sPEG4-[X]6-NH2]
42.4 % MeCN
